- target_or_test_system: SMARCA4-HiBiT HeLa cells (protein which is expressed from the SMARCA4 gene) (Homo sapiens)
- Construct: protein which is expressed from the SMARCA2 and SMARCA4 genes; host or cells: HeLa (SMARCA4-HiBiT engineered line)
- test_name: SMARCA4 degradation assay (HiBiT-fusion HeLa cell line, 24 h, luminescence)
- Assay type: cell-based
parameter_measured: DC50

Known DC50 results, listed for orientation:
>>> value("C[C@@H]1CCN(c2cc(-c3ccccc3O)nnc2N)CCN1c1ccnc(C=CCN(C)CC(F)F)n1 [Compound P-163]")
"0.05 to 0.5 µM"
>>> value("CC1CN(c2ccnc(C#CCN)n2)CCCN1c1cc(-c2ccccc2O)nnc1N (centres unmarked) [Compound P-40]")
"0.5 to 5 µM"
>>> value("CN(C)CC#Cc1cc(N2C[C@@H]3CN(c4cc(-c5ccccc5O)nnc4N)C[C@@H]3C2)ccn1 [Compound P-389]")
"< 0.05 µM"
>>> value("Nc1nnc(-c2ccccc2O)cc1N1CCCN(c2ccnc(C#CCCNC(=O)c3cc4ncccn4n3)n2)CC1 [Compound P-23]")
"0.05 to 0.5 µM"
>>> value("CC(=O)NCC#Cc1nccc(N2CCN(c3cc(-c4ccccc4O)nnc3N)CC2)n1 [Compound P-68]")
"> 5 µM"

Indicate the recorded DC50 value for this molecule: Cc1cnc(C#CCN(C)C)nc1N1CCN(c2cc(-c3ccccc3O)nnc2N)CC[C@H]1C [Compound P-229]
0.05 to 0.5 µM

Indicate the recorded DC50 value for this molecule: Nc1nnc(-c2ccccc2O)cc1N1CCCN(c2ccnc(C#CCn3ccc4ccccc43)n2)CC1 [Compound P-151]
0.05 to 0.5 µM

Indicate the recorded DC50 value for this molecule: Nc1nnc(-c2ccccc2O)cc1N1CCN(c2ccnc(C#CCN3CCCCC3)n2)CC1 [Compound P-280]
< 0.05 µM

----------
- target_or_test_system: SMARCA4-HiBiT HeLa cells (protein which is expressed from the SMARCA4 gene) (Homo sapiens)
- Construct: protein which is expressed from the SMARCA2 and SMARCA4 genes; host or cells: HeLa (SMARCA4-HiBiT engineered line)
- test_name: SMARCA4 degradation assay (HiBiT-fusion HeLa cell line, 24 h, luminescence)
- Format: cell-based
parameter_measured: DC50

Known DC50 results, listed for orientation:
>>> value("CC(C)(C)OC(=O)NC1CCN(CC#Cc2nccc(N3CCCN(c4cc(-c5ccccc5O)nnc4N)CC3)n2)CC1")
"50 to 500 nM"
>>> value("Nc1nnc(-c2ccccc2O)cc1N1CC2CCC(C1)N2c1ccnc(C#CCN2CCCCC2)n1")
"50 to 500 nM"
>>> value("Cn1ccc(NCC#Cc2nccc(N3C4CCC3CN(c3cc(-c5ccccc5O)nnc3N)C4)n2)n1")
"50 to 500 nM"

# input for lookup
Indicate the recorded DC50 value for this compound: Nc1nnc(-c2ccccc2O)cc1N1CCN(c2ccnc(C#CCNC(=O)c3cc4ccccc4o3)n2)CC1
< 50 nM

----------
- target_or_test_system: SMARCA4-HiBiT HeLa cells (protein which is expressed from the SMARCA4 gene) (Homo sapiens, UniProt P51532)
- Construct: protein which is expressed from the SMARCA2 and SMARCA4 genes; host or cells: HeLa (SMARCA4-HiBiT engineered line)
- Sequence (P51532 whole entry): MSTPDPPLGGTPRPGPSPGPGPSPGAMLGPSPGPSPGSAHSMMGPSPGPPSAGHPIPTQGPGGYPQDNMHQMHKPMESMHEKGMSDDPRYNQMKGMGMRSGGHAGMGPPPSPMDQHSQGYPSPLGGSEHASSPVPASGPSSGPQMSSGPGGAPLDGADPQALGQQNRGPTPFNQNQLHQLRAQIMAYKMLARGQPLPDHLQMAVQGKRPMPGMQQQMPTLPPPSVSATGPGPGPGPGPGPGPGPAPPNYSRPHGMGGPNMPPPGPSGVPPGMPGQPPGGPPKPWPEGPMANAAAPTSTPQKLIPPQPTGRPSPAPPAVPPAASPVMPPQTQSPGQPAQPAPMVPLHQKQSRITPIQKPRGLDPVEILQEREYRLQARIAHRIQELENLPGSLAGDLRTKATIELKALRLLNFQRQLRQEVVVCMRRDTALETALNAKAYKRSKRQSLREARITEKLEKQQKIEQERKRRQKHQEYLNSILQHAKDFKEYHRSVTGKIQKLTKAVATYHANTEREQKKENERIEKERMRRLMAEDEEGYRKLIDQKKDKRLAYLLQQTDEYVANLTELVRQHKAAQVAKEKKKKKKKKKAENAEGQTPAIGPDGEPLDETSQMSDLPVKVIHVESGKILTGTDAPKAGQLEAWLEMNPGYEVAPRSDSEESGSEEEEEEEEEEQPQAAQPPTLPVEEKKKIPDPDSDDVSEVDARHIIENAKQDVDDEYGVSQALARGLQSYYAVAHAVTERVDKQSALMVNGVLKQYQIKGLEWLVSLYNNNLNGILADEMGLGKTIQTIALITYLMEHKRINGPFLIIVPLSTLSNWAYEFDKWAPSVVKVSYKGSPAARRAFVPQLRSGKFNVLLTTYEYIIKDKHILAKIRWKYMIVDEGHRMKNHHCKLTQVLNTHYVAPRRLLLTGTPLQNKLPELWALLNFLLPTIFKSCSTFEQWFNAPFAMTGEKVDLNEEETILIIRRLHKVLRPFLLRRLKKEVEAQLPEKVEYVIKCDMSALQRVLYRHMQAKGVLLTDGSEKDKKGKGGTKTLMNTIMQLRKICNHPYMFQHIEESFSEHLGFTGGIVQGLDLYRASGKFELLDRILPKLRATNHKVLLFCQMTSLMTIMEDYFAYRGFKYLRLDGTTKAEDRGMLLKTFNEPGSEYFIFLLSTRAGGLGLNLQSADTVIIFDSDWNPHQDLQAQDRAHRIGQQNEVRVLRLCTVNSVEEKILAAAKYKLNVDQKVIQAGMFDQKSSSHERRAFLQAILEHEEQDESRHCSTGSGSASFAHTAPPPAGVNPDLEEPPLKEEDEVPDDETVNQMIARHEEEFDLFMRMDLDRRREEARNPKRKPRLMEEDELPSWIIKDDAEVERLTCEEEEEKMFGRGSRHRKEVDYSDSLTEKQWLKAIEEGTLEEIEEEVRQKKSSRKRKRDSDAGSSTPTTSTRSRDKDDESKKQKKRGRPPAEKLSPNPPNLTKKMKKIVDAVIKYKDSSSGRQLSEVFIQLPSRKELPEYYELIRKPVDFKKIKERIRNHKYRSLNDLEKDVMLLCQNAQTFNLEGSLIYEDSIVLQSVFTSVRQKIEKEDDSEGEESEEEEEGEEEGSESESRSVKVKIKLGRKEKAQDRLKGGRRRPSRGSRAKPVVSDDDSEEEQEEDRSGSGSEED
- test_name: SMARCA4 degradation assay (HiBiT-fusion HeLa cell line, 24 h, luminescence)
- Type: cell-based
DC50 for assorted molecules

Known DC50 results, listed for orientation:
>>> value("C[C@@H]1CCN(c2cc(-c3ccccc3O)nnc2N)CCN1c1nc(C#CCN2C(=O)CC[C@@H]2C)ncc1F")
"0.05 to 0.5 µM"
>>> value("Nc1nnc(-c2ccccc2O)cc1N1CCCN(c2ccnc(C#CCN3CCn4c(nnc4C(F)(F)F)C3)n2)CC1")
"0.5 to 5 µM"

Indicate the recorded DC50 value for this molecule: CCN(CC)CC#Cc1nccc(N2CCN(c3cc(-c4ccccc4O)nnc3N)CC[C@H]2C)n1
< 0.05 µM

Indicate the recorded DC50 value for this molecule: C[C@@H]1CCN(c2cc(-c3ccccc3O)nnc2N)CCN1c1ccnc(C#CCNc2ccn(C)n2)n1
0.05 to 0.5 µM
